// data source = patent US11439622B2

TARGET: NDM-1 (New Delhi metallo-β-lactamase-1) (Klebsiella pneumoniae, UniProt C7C422)
Sequence (C7C422 29-270, looked up, species assumed): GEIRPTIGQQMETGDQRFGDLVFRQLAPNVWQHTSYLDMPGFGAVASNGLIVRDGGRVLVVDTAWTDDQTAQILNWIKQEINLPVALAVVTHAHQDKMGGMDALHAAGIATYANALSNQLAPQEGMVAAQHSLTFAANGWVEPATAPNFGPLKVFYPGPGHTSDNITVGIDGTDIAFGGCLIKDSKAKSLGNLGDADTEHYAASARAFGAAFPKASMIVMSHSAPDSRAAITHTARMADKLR
PROTOCOL DETAILS: Enzyme inhibition assay, NDM-1
Assay type: biochemical
RUN CONDITIONS: read-out: pIC50 NDM-1 (converted)
QUANTITY NAME: IC50 (nM)

(P) O=C(O)c1[nH]c2c(CCOc3ccccc3)cccc2c1-c1ccc(Cl)cc1 [Example 84]
(Q) Cc1cccc2c(Cc3ccc(Cl)cc3)c(C(=O)O)[nH]c12 [Example 107]
Qu. Which of the two gives a bigger number for IC50: P or Q ? Returns: label corresponding to the selected item.
Ans. Q
(Q: 631 nM, P: 37.2 nM)

(I) Cc1cccc2c(-c3ccc(S(=O)(=O)N(C)C)cc3)c(C(=O)O)[nH]c12 [Example 29]
(II) CC(C)c1cccc2c(-c3ccc(S(=O)(=O)N(C)C)cc3)c(C(=O)Nc3ccccc3)[nH]c12 [Example 127]
Qu. Look at I and II . Which one has the lower recorded IC50 number? Returns: label corresponding to the selected item.
Ans. I

---

TARGET: VIM-2 (Veronese metallo-β-lactamase-2) (Escherichia coli)
PROTOCOL DETAILS: Enzyme inhibition assay, VIM-2
Assay type: biochemical
RUN CONDITIONS: read-out: pIC50 VIM-2 (converted)
Experimental: The biological activity of the compounds of the present invention was tested using standard assay protocols.^7 The following representative enzymes NDM-1 (New Delhi metallo-β-lactamase-1), IMP-1 (Imipenemase-1) and VIM-2 (Veronese metallo-β-lactamase-2) were selected from different clinically relevant B1 metallo-β-lactamases.
QUANTITY NAME: IC50 (nM)

Here's what some known entries look like.
Cc1cccc2c(-c3cccc(N(C)C)c3)c(C(=O)O)[nH]c12 :: 501
Cc1cccc2c(-c3ccc4[nH]ncc4c3)c(C(=O)O)[nH]c12 :: 100
Cc1cccc2c(-c3ccc(N)cc3)c(C(=O)O)[nH]c12 :: 1000
CC(C)(C)c1cccc2c(-c3ccc(F)cc3)c(C(=O)O)[nH]c12 :: 100
Cc1cccc2c(-c3ccc(S(C)(=O)=O)cc3)c(C(=O)O)[nH]c12 :: 316

(a) CC(C)c1cccc2c(-c3ccc(C(N)=O)cc3)c(C(=O)O)[nH]c12
(b) COc1ccc2c(-c3ccc(F)cc3)c(C(=O)O)[nH]c2c1C
Qu. Look at a and b . Which one has the lower recorded IC50 number? Returns: label corresponding to the selected item.
Ans. a
(a: 7.94 nM, b: 398 nM)

(A) Cc1cccc2c(-c3ccccc3C#N)c(C(=O)O)[nH]c12
(B) Cc1cccc2c(-c3cccc(C(F)(F)F)c3)c(C(=O)O)[nH]c12
Qu. Look at A and B . Which one has the lower recorded IC50 number? Returns: label corresponding to the selected item.
Ans. B
(B: 200 nM, A: 316 nM)

(a) CC(C)c1cccc2c(-c3ccc(N4CCOCC4)cc3)c(C(=O)O)[nH]c12
(b) Cc1c(Oc2ccccc2)ccc2c(-c3ccc(F)cc3)c(C(=O)O)[nH]c12
(c) COc1ccccc1-c1c(C(=O)O)[nH]c2c(C)cccc12
Qu. // sort entries: IC50, high to low Kindly provide the labels arranged according to the requested ordering.
Ans. b, c, a
(b: 501 nM, c: 200 nM, a: 79.4 nM)

(A) O=C(O)c1[nH]c2c(F)cccc2c1-c1ccc(F)cc1
(B) Cc1cccc2c(-c3cccc4[nH]ncc34)c(C(=O)O)[nH]c12
Qu. Look at A and B . Which one has the lower recorded IC50 number? Returns: label corresponding to the selected item.
Ans. B
